test_system: TJP1_2, Q07157
Sequence (Q07157 181-274): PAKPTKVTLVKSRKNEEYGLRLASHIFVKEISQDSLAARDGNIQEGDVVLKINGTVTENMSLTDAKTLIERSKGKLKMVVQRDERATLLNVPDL
method_description: holdup assay
Parameters: key: below the threshold = too weak to quantify, mostly under pKd 3.1 to 4
applied_conditions: plain residues with an end cap or a label only (N-terminal biotin on a linker: ado-ado)
quantity: pKd

INSERT INTO assay_data (binder, quantity, value_observed) VALUES
  ('EIPAQSPTCV [FZD10, Q9ULW2]', 'pKd', 3.78),
  ('MHIQEKGFHV [EPHA6, Q9UF33]', 'pKd', 3.52),
  ('RSSGGDDFWF [KCNV1, Q6PIU1]', 'pKd', 5.12),
  ('QSYPSKHDYV [CLDN18, P56856]', 'pKd', 3.61),
  ('PSHPRLQTHV [KIRREL2, Q6UWL6]', 'pKd', 'below the threshold');

Turning now to a further record.
Requested read-out: pKd. Entry: QSGLYESEEL [MYOT, Q9UBF9] below the threshold
